Tested on: HARA
Assay: relative viability (nuclei count vs DMSO), 5 days (fraction); higher = more cells survive
Details: first compound 0.01 µM
I'd appreciate it if you could supply relative viability values for the items below.
Give the figure by itself; no unit, no explanation.

Would you mind telling me what relative viability value was observed for CC(C)Oc1cc(Nc2nc(N[C@@H](C)c3ccc(F)cn3)ncc2Cl)n[nH]1 [AZ23] + C[C@]1(O)C[C@@H](c2nc(-c3ccc4ccc(-c5ccccc5)nc4c3)c3c(N)nccn32)C1 [Linsitinib] (partner 1 µM) ? 0.977

So what does the record say about relative viability for CC(C)Oc1cc(Nc2nc(N[C@@H](C)c3ccc(F)cn3)ncc2Cl)n[nH]1 [AZ23] + O=C(c1cc(Cc2n[nH]c(=O)c3ccccc23)ccc1F)N1CCN(C(=O)C2CC2)CC1 [Olaparib] (partner 8 µM) ? 0.292

What relative viability value was documented for this molecule, CC(C)Oc1cc(Nc2nc(N[C@@H](C)c3ccc(F)cn3)ncc2Cl)n[nH]1 [AZ23] + NC(=O)Nc1cc(-c2cccc(F)c2)sc1C(=O)N[C@H]1CCCNC1 [AZD7762] (partner 0.2 µM) ? 0.252

Report relative viability for CC(C)Oc1cc(Nc2nc(N[C@@H](C)c3ccc(F)cn3)ncc2Cl)n[nH]1 [AZ23] + CS(=O)(=O)N1CCN(Cc2cc3nc(-c4cccc5[nH]ncc45)nc(N4CCOCC4)c3s2)CC1 [Pictilisib] (partner 1 µM) please. 0.421

Look at this molecule and give its reported relative viability. CC(C)Oc1cc(Nc2nc(N[C@@H](C)c3ccc(F)cn3)ncc2Cl)n[nH]1 [AZ23] + Nc1ncn([C@H]2C[C@H](O)[C@@H](CO)O2)c(=O)n1 [Decitabine] (partner 2 µM) 0.621

Query (molecule): CC(C)Oc1cc(Nc2nc(N[C@@H](C)c3ccc(F)cn3)ncc2Cl)n[nH]1 [AZ23] + C[C@@H](Oc1cc(-c2cnn(C3CCNCC3)c2)cnc1N)c1c(Cl)ccc(F)c1Cl [Crizotinib] (partner 1 µM) ; field requested: relative viability 1.2

Tell me the measured relative viability of CC(C)Oc1cc(Nc2nc(N[C@@H](C)c3ccc(F)cn3)ncc2Cl)n[nH]1 [AZ23] + Cc1nc(NC(=O)N2CCC[C@H]2C(N)=O)sc1-c1ccnc(C(C)(C)C(F)(F)F)c1 [Alpelisib] (partner 2 µM) , please. 1.18
